// values below are reported MIC
test system: Strep. faecalis HH 34358
PARAMETER: MIC (µg/mL)

                                   compound                       tgt  quantitative_result
0  O=C(O)C1=C(CSc2nnnn2CCNS(=O)(=O)O)CSC2C(NC(=O)[C@H](O)c3ccccc3)C(=O)N12 (stereo partly shown)  Strep. faecalis HH 34358                  100
1  O=C(CSC(F)(F)F)NC1C(=O)N2C(C(=O)O)=C(CSc3nnnn3CCNS(=O)(=O)O)CSC12 (stereo not shown)  Strep. faecalis HH 34358                  100
2  O=C(Cn1cnnn1)NC1C(=O)N2C(C(=O)O)=C(CSc3nnnn3CCNS(=O)(=O)O)CSC12 (stereo not shown)  Strep. faecalis HH 34358                   50
3  O=C(Cc1cccs1)NC1C(=O)N2C(C(=O)O)=C(CSc3nnnn3CCNS(=O)(=O)O)CSC12 (stereo not shown)  Strep. faecalis HH 34358                 12.5
